Biological target: T1, alpha-s1 casein from Bos taurus
T1 chain: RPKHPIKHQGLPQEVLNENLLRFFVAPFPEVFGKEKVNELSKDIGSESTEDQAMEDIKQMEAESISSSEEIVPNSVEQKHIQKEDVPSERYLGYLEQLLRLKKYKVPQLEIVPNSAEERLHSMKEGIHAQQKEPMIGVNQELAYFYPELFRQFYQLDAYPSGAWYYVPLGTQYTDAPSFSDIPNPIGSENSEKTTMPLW
Reported (αSN1-1)/(αSN1), 24 hours, 11° C. values for the following proteins.
A bare number is all that is needed in reply.

1) camel chymosin variant #151 (D290A) (protein) GKVAREPLTSYLDSQYFGKIYIGTPPQEFTVVFDTGSSDLWVPSIYCKSNVCKNHHRFDPRKSSTFRNLGKPLSIHYGTGSMEGFLGYDTVTVSNIVDPNQTVGLSTEQPGEVFTYSEFDGILGLAYPSLASEYSVPVFDNMMDRHLVARDLFSVYMDRNGQGSMLTLGAIDPSYYTGSLHWVPVTLQQYWQFTVDSVTINGVAVACVGGCQAILDTGTSVLFGPSSDILKIQMAIGATENRYGEFDVNCGNLRSMPTVVFEINGRDYPLSPSAYTSKDQGFCTSGFQGANNSELWILGDVFIREYYSVFDRANNRVGLAKAI = 2.5

Now for another entry.
Task: Quick one: (αSN1-1)/(αSN1), 24 hours, 11° C. for camel chymosin variant #137 (F223D) (protein) GKVAREPLTSYLDSQYFGKIYIGTPPQEFTVVFDTGSSDLWVPSIYCKSNVCKNHHRFDPRKSSTFRNLGKPLSIHYGTGSMEGFLGYDTVTVSNIVDPNQTVGLSTEQPGEVFTYSEFDGILGLAYPSLASEYSVPVFDNMMDRHLVARDLFSVYMDRNGQGSMLTLGAIDPSYYTGSLHWVPVTLQQYWQFTVDSVTINGVAVACVGGCQAILDTGTSVLDGPSSDILKIQMAIGATENRYGEFDVNCGNLRSMPTVVFEINGRDYPLSPSAYTSKDQGFCTSGFQGDNNSELWILGDVFIREYYSVFDRANNRVGLAKAI ?
Result: 2.3

Entry source: patent US20150140169
